# credit: patent US9718790B2

TARGET_UNDER_TEST: human P2X3 receptor (Homo sapiens (Human))
Sequence (P56373 whole entry): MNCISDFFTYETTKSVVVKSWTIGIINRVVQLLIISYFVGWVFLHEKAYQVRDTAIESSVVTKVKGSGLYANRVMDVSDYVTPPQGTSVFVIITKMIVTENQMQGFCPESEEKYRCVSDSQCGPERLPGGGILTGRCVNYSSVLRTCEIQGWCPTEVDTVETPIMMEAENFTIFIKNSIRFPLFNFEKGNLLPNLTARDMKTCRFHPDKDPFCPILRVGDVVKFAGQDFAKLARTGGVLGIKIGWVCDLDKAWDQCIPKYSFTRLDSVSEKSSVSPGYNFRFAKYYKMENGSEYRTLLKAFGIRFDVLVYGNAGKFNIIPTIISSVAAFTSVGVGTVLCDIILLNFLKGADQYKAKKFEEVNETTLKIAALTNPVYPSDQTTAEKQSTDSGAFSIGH
ASSAY_REMARKS: Evaluation of human P2X3 receptor inhibitory activity (Fluo-3 calcium fluorescence, FDSS 3000, ATP stimulation);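 also: stimulus was 50 nM ATP with fluorescence followed for 3 min, and the response per well was peak post-ATP fluorescence divided by the reading at measurement start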
Type: cell-based
CONDITION: C6BU-1 cells stably expressing human P2X3 receptor
pIC50: −log10 of the molar value.
List of pIC50 values.
PARAMETER_MEASURED: pIC50

Cc1ccc(Cn2c(=O)n(C[C@H](C)C(=O)O)c(=O)[nH]/c2=N\c2ccc(OC3CCCC3)nc2)cc1	6.91
CC(C)=Cc1ccc(/N=c2\[nH]c(=O)n(C[C@H](C)C(=O)O)c(=O)n2Cc2ccc(C)cc2)cn1	6.24
Cc1ccc(Cn2c(=O)n(CCC(=O)O)c(=O)[nH]/c2=N\c2ccc(CC(C)C)c(Cl)c2)cc1	8.10
Cc1cc(/N=c2\[nH]c(=O)n([C@H]3C[C@@H](C(=O)O)N(C(=O)OC(C)(C)C)C3)c(=O)n2Cc2ccc(Cl)cc2)ccc1OC(C)C	6.02
CC(C)Cc1ccc(/N=c2\[nH]c(=O)n([C@H](C)[C@H](C)C(=O)O)c(=O)n2Cc2ccc(Cl)cc2)cc1Cl	8.40
Cc1ccc(Cn2c(=O)n([C@@H](C)[C@@H](C)C(=O)O)c(=O)[nH]/c2=N\c2ccc(OC(C)C)c(Br)c2)cc1	7.96
